Property: pEC50; scope: individual compounds
Test system: Symmetric di-Methyl Arginine in Z-138 cells
Assay Comment: Z-138 Methylation Assay (In Cell Western for symmetric di-methyl arginine)
Assay type: cell-based
Recorded Conditions: Homo sapiens, 96 hours incubation, symmetric di-methyl arginine normalised to DNA content, read-out: ICW EC50
pEC50: −log10 of the molar value.

Some compounds with recorded pEC50:
Compound	pEC50
CC(=O)N1CCC(Nc2cc(C(=O)NC[C@H](O)CN3CCc4c(cnn4C)C3)ccn2)CC1 [Compound 3-52]	< 6.00
CC(=O)N1CC(Nc2cc(C(=O)NC[C@H](O)CN3CCc4c(cnn4C)C3)ncn2)C1 [Compound 3-29]	< 6.00
CC(=O)N1CCC(Nc2cc(C(=O)NC[C@H](O)CN3CCc4c(ncn4C)C3)ncn2)CC1 [Compound 3-35]	< 6.00

Task item: Please report pEC50 with Symmetric di-Methyl Arginine in Z-138 cells for item O=C(COc1cccc2cccnc12)NCC(O)CN1CCc2ccncc2C1 (stereo not shown) [Compound 2-8] .
Reply: < 6.00

Task item: Please report pEC50 with Symmetric di-Methyl Arginine in Z-138 cells for item CC(=O)N1CC(Nc2cc(C(=O)NC[C@H](O)CN3CCc4cnccc4C3)ncn2)C1 [Compound 2-16] .
Reply: < 6.00

Task item: Please report pEC50 with Symmetric di-Methyl Arginine in Z-138 cells for item CC(=O)N1CCC(Nc2cc(C(=O)NC[C@H](O)CN3CCCc4c3cnn4C)ncn2)CC1 [Compound 3-58] .
Reply: < 6.00

Task item: Please report pEC50 with Symmetric di-Methyl Arginine in Z-138 cells for item CC(=O)N1CC(Nc2cc(C(=O)NC[C@H](O)CN3CCc4[nH]ncc4C3)ncn2)C1 [Compound 3-23] .
Reply: < 6.00

Task item: Please report pEC50 with Symmetric di-Methyl Arginine in Z-138 cells for item CC(=O)N1CCC(Nc2cc(C(=O)NC[C@H](O)CN3CCc4scc(C)c4C3)ccn2)CC1 [Compound 1-14] .
Reply: > 7.00

Task item: Please report pEC50 with Symmetric di-Methyl Arginine in Z-138 cells for item CC(=O)N1CC(Nc2cc(C(=O)NC[C@H](O)CN3CCc4ccncc4C3)ncn2)C1 [Compound 2-22] .
Reply: < 6.00

Task item: Please report pEC50 with Symmetric di-Methyl Arginine in Z-138 cells for item CC(=O)N1CCC(Nc2cc(C(=O)NC[C@H](O)CN3CCc4sc(C)nc4C3)ncn2)CC1 [Compound 1-36] .
Reply: < 6.00

Task item: Please report pEC50 with Symmetric di-Methyl Arginine in Z-138 cells for item O=C(NC[C@H](O)CN1CCc2ncsc2C1)c1cc(NC2COC2)ncn1 [Compound 1-16] .
Reply: < 6.00

Task item: Please report pEC50 with Symmetric di-Methyl Arginine in Z-138 cells for item CC(=O)N1CC(Nc2cc(C(=O)NC[C@H](O)CN3CCc4ncsc4C3)ncn2)C1 [Compound 1-17] .
Reply: < 6.00

###

Target Or Test System: PRMT5/MEP50 (Homo sapiens)
Construct: Flag-PRMT5
Assay Comment: PRMT5 Biochemical Assay (PRMT5/MEP50 enzyme assay on peptide substrate, 3H-SAM Flashplate)
Recorded Conditions: PRMT5/MEP50 4 nM, 3H-SAM 75 nM, peptide 40 nM, 30 min preincubation at 25 degrees Celsius
pIC50: −log10 of the molar value.
Property: pIC50; scope: individual compounds

Compound	Target Or Test System	pIC50
CC(=O)N1CC(Nc2cc(C(=O)NC[C@H](O)CN3CCc4sccc4C3)ncn2)C1 [Compound 1-2]	PRMT5/MEP50 (Homo sapiens)	> 7.00

Task item: Look up pIC50 of O=C(NC[C@H](O)CN1CCc2cn[nH]c2C1)c1cc(NC2COC2)ncn1 [Compound 3-39] and report it.
Reply: < 5.00

Task item: Look up pIC50 of Cc1sc2c(c1C)CN(C[C@@H](O)CNC(=O)c1cc(NC3COC3)ncn1)CC2 [Compound 1-24] and report it.
Reply: > 7.00

Task item: Look up pIC50 of CC(=O)N1CCC(Nc2cc(C(=O)NC[C@H](O)CN3CCc4sc(C)nc4C3)ccn2)CC1 [Compound 1-33] and report it.
Reply: 5.00 to 6.00

Task item: Look up pIC50 of Cn1cnc2ccc(-c3cccc(OCC(O)CN4CCc5[nH]nc(-c6ccccc6)c5C4)c3)cc21 (stereo not drawn) [Compound 3-6] and report it.
Reply: 4.30 to 5.00

Task item: Look up pIC50 of CC(=O)N1CCC(Nc2cc(C(=O)NC[C@H](O)CN3CCc4oc(C)nc4C3)ccn2)CC1 [Compound 4-4] and report it.
Reply: < 5.00

Task item: Look up pIC50 of CC(=O)N1CCC(Nc2cc(C(=O)NC[C@H](O)CN3CCc4scnc4C3)ccn2)CC1 [Compound 1-30] and report it.
Reply: 5.00 to 6.00

Task item: Look up pIC50 of CC(=O)N1CCC(Nc2cc(C(=O)NC[C@H](O)CN3CCc4sc(N)nc4C3)ncn2)CC1 [Compound 1-37] and report it.
Reply: 5.00 to 6.00

Task item: Look up pIC50 of CC(=O)N1CCC(Nc2cc(C(=O)NC[C@H](O)CN3CCc4c(cnn4C)C3)ncn2)CC1 [Compound 3-56] and report it.
Reply: < 5.00

###

Property: pIC50; scope: individual molecules
Target Or Test System: PRMT5/MEP50 (Homo sapiens, UniProt O14744)
Construct: Flag-PRMT5
Sequence (O14744 with tags, fused parts or gaps): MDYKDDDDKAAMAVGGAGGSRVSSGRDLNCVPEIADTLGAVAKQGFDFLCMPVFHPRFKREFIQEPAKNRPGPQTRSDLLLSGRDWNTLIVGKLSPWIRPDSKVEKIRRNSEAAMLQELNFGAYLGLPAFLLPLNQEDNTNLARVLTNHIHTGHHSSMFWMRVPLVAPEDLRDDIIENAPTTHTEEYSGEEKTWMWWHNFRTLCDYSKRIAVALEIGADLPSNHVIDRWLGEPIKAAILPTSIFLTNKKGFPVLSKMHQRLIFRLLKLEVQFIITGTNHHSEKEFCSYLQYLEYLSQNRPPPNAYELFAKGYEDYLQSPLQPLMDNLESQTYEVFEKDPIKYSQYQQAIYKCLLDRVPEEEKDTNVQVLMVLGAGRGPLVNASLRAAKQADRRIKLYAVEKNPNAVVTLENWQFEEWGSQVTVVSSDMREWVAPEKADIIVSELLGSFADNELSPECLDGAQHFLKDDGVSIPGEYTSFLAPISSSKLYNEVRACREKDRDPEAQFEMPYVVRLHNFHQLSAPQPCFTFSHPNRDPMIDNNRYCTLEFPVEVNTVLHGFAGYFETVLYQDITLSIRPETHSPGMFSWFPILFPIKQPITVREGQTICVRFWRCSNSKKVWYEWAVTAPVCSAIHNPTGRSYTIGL
Sequence (Q9BQA1 with tags, fused parts or gaps partner limits assumed): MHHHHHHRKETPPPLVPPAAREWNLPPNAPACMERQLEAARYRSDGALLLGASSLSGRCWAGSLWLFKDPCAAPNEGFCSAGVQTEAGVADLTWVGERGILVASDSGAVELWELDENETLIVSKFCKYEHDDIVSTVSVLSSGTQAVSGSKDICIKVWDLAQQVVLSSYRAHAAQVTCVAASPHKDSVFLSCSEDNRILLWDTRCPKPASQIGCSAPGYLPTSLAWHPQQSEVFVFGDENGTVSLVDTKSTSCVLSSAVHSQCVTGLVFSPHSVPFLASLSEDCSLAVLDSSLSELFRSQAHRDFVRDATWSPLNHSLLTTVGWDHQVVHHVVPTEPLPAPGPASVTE
Assay Comment: PRMT5 Biochemical Assay (PRMT5/MEP50 enzyme assay on peptide substrate, 3H-SAM Flashplate)
Recorded Conditions: PRMT5/MEP50 4 nM, 3H-SAM 75 nM, peptide 40 nM, 30 min preincubation at 25 degrees Celsius
pIC50: −log10 of the molar value.

Some molecules with recorded pIC50:
Molecule	pIC50
CC(=O)N1CCC(Nc2cc(C(=O)NC[C@H](O)CN3CCc4[nH]cnc4C3)ccn2)CC1	< 5.00
O=C(COc1cccc2cccnc12)NCC(O)CN1CCc2cccnc2C1 (centres unmarked)	5.00 to 6.00
Cn1cnc2c1CN(C[C@@H](O)COc1cccc(CNC3CCCC3)c1)CC2	< 4.30
OC(COc1cccc(CNC2CCCC2)c1)CN1CCc2[nH]nc(-c3ccccc3)c2C1 (centres unmarked)	4.30 to 5.00
CC(=O)N1CCC(Nc2cc(C(=O)NC[C@H](O)CN3CCc4sc(C)nc4C3)ncn2)CC1	5.00 to 6.00

Task item: Look up pIC50 of Cn1ncc2c1CCN(CC(O)COc1cccc(CNC3CCCC3)c1)C2 (centres unmarked) and report it.
Reply: < 4.30

Task item: Look up pIC50 of "CC(=O)N1CC(Nc2cc(C(=O)NC[C@H](O)CN3CCc4cnccc4C3)ncn2)C1" and report it.
Reply: 6.00 to 7.00

Task item: Look up pIC50 of "Cn1ncc2c1CCCN2C[C@@H](O)CNC(=O)c1cc(NC2COC2)ncn1" and report it.
Reply: < 5.00

Task item: Look up pIC50 of "CC(=O)N1CC(Nc2cc(C(=O)NC[C@H](O)CN3CCc4[nH]nc(-c5ccccc5)c4C3)ncn2)C1" and report it.
Reply: 5.00 to 6.00

Task item: Look up pIC50 of "O=C(NC[C@H](O)CN1CCc2ncccc2C1)c1cc(NC2COC2)ncn1" and report it.
Reply: 6.00 to 7.00

Task item: Look up pIC50 of "CC(=O)N1CCC(Nc2cc(C(=O)NC[C@H](O)CN3CCc4cccnc4C3)ncn2)CC1" and report it.
Reply: 6.00 to 7.00

Task item: Look up pIC50 of "Cn1cnc2c1CCN(C[C@H](O)COc1cccc(CNC3CCCC3)c1)C2" and report it.
Reply: < 4.30

Task item: Look up pIC50 of "Cc1nc2c(s1)CCN(C[C@@H](O)CNC(=O)c1cc(NC3COC3)ncn1)C2" and report it.
Reply: < 5.00

Task item: Look up pIC50 of "O=C(NC[C@H](O)CN1CCc2scnc2C1)c1cc(NC2COC2)ncn1" and report it.
Reply: < 5.00

Task item: Look up pIC50 of "Nc1nc2c(s1)CCN(C[C@@H](O)CNC(=O)c1cc(NC3COC3)ncn1)C2" and report it.
Reply: < 5.00

Task item: Look up pIC50 of "CC(=O)N1CCC(Nc2cc(C(=O)NC[C@H](O)CN3CCCc4c3cnn4C)ncn2)CC1" and report it.
Reply: < 5.00

Task item: Look up pIC50 of "CC(=O)N1CCC(Nc2cc(C(=O)NC[C@H](O)CN3CCc4c(C)csc4C3)ncn2)CC1" and report it.
Reply: > 7.00

Task item: Look up pIC50 of "O=C(NC[C@H](O)CN1CCc2[nH]ncc2C1)c1cc(NC2COC2)ncn1" and report it.
Reply: < 5.00

Task item: Look up pIC50 of "CC(=O)N1CCC(Nc2cc(C(=O)NC[C@H](O)CN3CCc4cnn(C)c4C3)ccn2)CC1" and report it.
Reply: 6.00 to 7.00

Task item: Look up pIC50 of "CC(=O)N1CC(Nc2cc(C(=O)NC[C@H](O)CN3CCc4sc(C)nc4C3)ncn2)C1" and report it.
Reply: 5.00 to 6.00

Task item: Look up pIC50 of "CC(=O)N1CC(Nc2cc(C(=O)NC[C@H](O)CN3CCc4nc(N)sc4C3)ncn2)C1" and report it.
Reply: 5.00 to 6.00

Task item: Look up pIC50 of "CC(=O)N1CC(Nc2cc(C(=O)NC[C@H](O)CN3CCc4c(cnn4C)C3)ncn2)C1" and report it.
Reply: < 5.00

Task item: Look up pIC50 of "CC(=O)N1CCC(Nc2cc(C(=O)NC[C@H](O)CN3CCc4nn(C)cc4C3)ccn2)CC1" and report it.
Reply: 5.00 to 6.00

Task item: Look up pIC50 of "CC(=O)N1CCC(Nc2cc(C(=O)NC[C@H](O)CN3CCc4ncccc4C3)ncn2)CC1" and report it.
Reply: > 7.00

Task item: Look up pIC50 of "O=C(NC[C@H](O)CN1CCc2[nH]nc(-c3ccccc3)c2C1)c1cc(NC2COC2)ncn1" and report it.
Reply: < 5.00

src = patent US20170210751A1
